The values you see were collected from patent US20250313625A1.

- target.desc: T1, hFc tagged human LAG3 ECD recombinant protein (human, UniProt P18627 23-450)
- T1 construct: range 23-450; also called biotin labelled hFc tagged human LAG3 ECD; not shown: human IgG Fc tag
- T1 sequence (looked up): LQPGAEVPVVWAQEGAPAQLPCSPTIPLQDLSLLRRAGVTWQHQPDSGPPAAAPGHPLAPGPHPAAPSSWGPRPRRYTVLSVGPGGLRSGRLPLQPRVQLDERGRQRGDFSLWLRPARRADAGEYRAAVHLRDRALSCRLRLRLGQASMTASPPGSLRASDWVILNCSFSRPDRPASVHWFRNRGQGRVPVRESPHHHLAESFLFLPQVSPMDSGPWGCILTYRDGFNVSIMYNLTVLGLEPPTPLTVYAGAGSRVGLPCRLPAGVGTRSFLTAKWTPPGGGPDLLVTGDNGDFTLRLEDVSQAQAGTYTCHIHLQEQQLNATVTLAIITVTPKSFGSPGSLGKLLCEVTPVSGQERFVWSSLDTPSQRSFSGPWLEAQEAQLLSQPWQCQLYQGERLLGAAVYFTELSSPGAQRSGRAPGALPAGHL
- method: competitive ELISA format II: biotin hFc-LAG3 ECD binding to coated His-FGL1
Some binders, each annotated with its measured TOP blocking (%).
measure.name: TOP blocking (%)

>>> meas_value("hu023.04 (antibody, human IgG4, V domains shown, humanized from 023c) VH: QVQLVQSGAEVKKPGASVKVSCKASGYTFTESPMNWVRQAPGQGFEWMGIIYTDTGEPTYAEEFKGRVTMTRDTSTSTVYMELSSLRSEDTAVYFCASDYGSILYWYFDVWGQGTLVTVSS VL: DIQMTQSPSSLSASVGDRVTITCKASQDVSTAVAWYQQKPGKAPKLLIYSASYRYTGVPSRFSGSGSGTDFTLTISSLQPEDFATYYCQQHYNAPPTFGQGTKLEIK")
"82.2%"
>>> meas_value("hu023.10 (antibody, human IgG4, V domains shown, humanized from 023c) VH: QVQLVQSGPELKKPGASVKVSCKASGYTFTESPMNWVRQAPGQGFEWMGIIYTDTGEPTYAEEFKGRFVFSLDTSVSTAYLQISSLKAEDTAVYFCVSDYGSILYWYFDVWGQGTLVTVSS VL: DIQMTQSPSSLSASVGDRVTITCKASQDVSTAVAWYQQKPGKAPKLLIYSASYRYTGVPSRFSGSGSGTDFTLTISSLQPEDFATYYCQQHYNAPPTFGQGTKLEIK")
"82.8%"
>>> meas_value("hu023.07 (antibody, human IgG4, V domains shown, humanized from 023c) VH: QVQLVQSGPEVKKPGASVKVSCKASGYTFTESPMNWVRQAPGQGFEWMGIIYTDTGEPTYAEEFKGRVTMTLDTSTSTVYMELSSLRSEDTAVYFCASDYGSILYWYFDVWGQGTLVTVSS VL: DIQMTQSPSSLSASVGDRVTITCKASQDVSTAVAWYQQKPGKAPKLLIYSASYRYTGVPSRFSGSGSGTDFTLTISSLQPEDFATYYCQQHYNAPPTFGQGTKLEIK")
"81.3%"
>>> meas_value("hu023.13 (antibody, human IgG4, V domains shown, humanized from 023c) VH: QIQLVQSGPELKKPGASVKISCKASGYTFTESPMNWVRQAPGQGFEWMGIIYTDTGEPTYAEEFKGRFVFSLDTSVSTAYLQISSLKAEDTAVYFCVSDYGSILYWYFDVWGQGTLVTVSS VL: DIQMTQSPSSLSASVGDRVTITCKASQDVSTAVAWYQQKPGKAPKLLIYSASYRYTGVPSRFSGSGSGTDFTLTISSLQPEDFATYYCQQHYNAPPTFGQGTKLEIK")
"83.2%"
